# Measured On: T1, human serum albumin (human, UniProt P02768 25-609)
# T1 construct: Negative control antigen of the screening ELISA; also called HSA
# Assay Summary: ELISA, bacterial lysate on plate-bound antigen, luminescence
Record form. Attribute: ELISA HSA (RLU). Fill in for each entry.
Answers are plain numbers, in RLU.

Past entries and their recorded results:
| Binder | ELISA HSA (RLU) |
| --- | --- |
| ISOP120FR5P1E9 (designed binder, not shown: small tags and cut ends, FN3 domain (Centyrin); tested as E. coli lysate) LPAPKNLVVSRVTEDSARLSWTAPDAAFDSFIIYYPEYISNGEAIVLTVPGSERSYDLTGLKPGTEYHVTIGVKGGHSWPLSAIFTT | 400 |
| ISOP120AR5P1G7 (designed binder, not shown: small tags and cut ends, FN3 domain (Centyrin); tested as E. coli lysate) LPAPKNLVVSRVTEDSARLSWSQHYLSPIPFDSFLIQYQESEKVGEAIVLTVPGSERSYDLTGLKPGTEYTVSIYGVGRHYTVYDSNPLSAIFTT | 480 |
| ISOP120FR5P1F1 (designed binder, not shown: small tags and cut ends, FN3 domain (Centyrin); tested as E. coli lysate) LPAPKNLVVSRVTEDSARLSWTAPDAAFDSFTIYYFENENGGEAIVLTVPGSERSYDLTGLKPGTEYLVTIYGVKGCDWSDPLSAIFTT | 640 |
| ISOP120ER5P1F4 (designed binder, not shown: small tags and cut ends, FN3 domain (Centyrin); tested as E. coli lysate) LPAPKNLVVSRVTEDSARLSWTAPDAAFDSFVIRYIEDTVMGEAIVLTVPGSERSYDLTGLKPGTEYHVSIEGVKGGPSSLPLSAIFTT | 400 |
| ISOP120HR5P1G6 (designed binder, not shown: small tags and cut ends, FN3 domain (Centyrin); tested as E. coli lysate) LPAPKNLVVSRVTEDSARLSWTAPDAAFDSFEIYYFELRLGGEAIVLTVPGSERSYDLTGLKPGTEYLVTIYGVKGGLDSQPLSAIFTT | 320 |
| ISOP120HR5P1A3 (designed binder, not shown: small tags and cut ends, FN3 domain (Centyrin); tested as E. coli lysate) LPAPKNLVVSRVTEDSARLSWTAPDAAFDSFEIYYAEFGYYGEAIVLTVPGSERSYDLTGLKPGTEYTVTIYGVKGGWYSTPLSAIFTT | 240 |

List reported ELISA HSA (RLU) for each of these binders:
1. ISOP120BR5P1A10 (designed binder, not shown: small tags and cut ends, FN3 domain (Centyrin); tested as E. coli lysate) LPAPKNLVVSRVTEDSARLSWTEEDITHLRFDSFLIQYQESEKVGEAIVLTVPGSERSYDLTGLKPGTEYTVSIYGVYWTWWVRWNSNPLSAIFTT
2. ISOP120BR5P1B9 (designed binder, not shown: small tags and cut ends, FN3 domain (Centyrin); tested as E. coli lysate) LPAPKNLVVSRVTEDSARLSWAVEFNPTKFDSFLIQYQESEKVGEAIVLTVPGSERSYDLTGLKPGTEYTVSIYGVWWFEQWYPVSNPLSAIFTT
3. ISOP120AR5P1C3 (designed binder, not shown: small tags and cut ends, FN3 domain (Centyrin); tested as E. coli lysate) LPAPKNLVVSRVTEDSARLSWSPVDADFTFDSFLIQYQESEKVGEAIVLTVPGSERSYDLTGLKPGTEYTVSIYGVGRHYTVYDSNPLSAIFTT

[26600, 400, 240]
